# target: T cell receptor alpha/beta on primary cynomolgus T cells (cynomolgus)
# method_notes: cell-based or functional assay
Rule: IC50, xCELLigence cynomolgus T cell mediated CHO-K1 human CD20 killing assay, E:T 30:1 below 0.9 nM gives t, anything at or above gives f.

{"binder": "T017000076 (bispecific antibody, CD20 x TCR bispecific Nanobody construct (cluster A); entry includes the FLAG3-HIS6 tag; also called 20CD019C07-35GS-T0170056G05-FLAG3-HIS6) EVQLVESGGGLVQPGGSLRLSCTFSGGTFSSYTMGWFRQAPGKEREFVAEVRWGGVTTYSNSLKDRFSISEDSVKNAVYLQMNSLKPEDTAVYYCAAVRQMYMTVVPDYWGQGTLVTVSSGGGGSGGGGSGGGGSGGGGSGGGGSGGGGSGGGGSEVQLVESGGGLVQPGGSLRLSCVASGDVHKINFLGWYRQAPGKEREKVAHISIGDQTDYADSAKGRFTISRDESKNMVYLQMNSLKPEDTAVYFCRAFSRIYPYDYWGQGTLVTVSSGAADYKDHDGDYKDHDIDYKDDDDKGAAHHHHHH", "classification": "t"}
{"binder": "T017000055 (bispecific antibody, entry includes the FLAG3-HIS6 tag; also called 20CD019C07-35GS-T0170055A02-FLAG3-HIS6) EVQLVESGGGLVQPGGSLRLSCTFSGGTFSSYTMGWFRQAPGKEREFVAEVRWGGVTTYSNSLKDRFSISEDSVKNAVYLQMNSLKPEDTAVYYCAAVRQMYMTVVPDYWGQGTLVTVSSGGGGSGGGGSGGGGSGGGGSGGGGSGGGGSGGGGSEVQLVESGGGLVQPGGSLRLSCAASGDVHKINILGWYRQAPAKEREMVAHITIGDATDYADSAKGRFTISRDEAKNMVYLQMNSLKPEDTAVYFCRAYSRIYPYNYWGQGTLVTVSSGAADYKDHDGDYKDHDIDYKDDDDKGAAHHHHHH", "classification": "f"}
{"binder": "T017000031 (bispecific antibody, TCR x CD20 bispecific Nanobody construct (cluster B); entry includes the FLAG3-HIS6 tag; also called T0170055C07-35GS-20CD019C07-FLAG3-HIS6) EVQLVESGGGLVQPGGSLRLSCITSGETFKINIWGWYRQAPGKQRELVASLTIGGATNYADSVKGRFTISEDSAKNTVYLQMNSLKPEDTAVYFCNAKSRLYPYDYWGQGTLVTVSSGGGGSGGGGSGGGGSGGGGSGGGGSGGGGSGGGGSEVQLVESGGGLVQPGGSLRLSCTFSGGTFSSYTMGWFRQAPGKEREFVAEVRWGGVTTYSNSLKDRFSISEDSVKNAVYLQMNSLKPEDTAVYYCAAVRQMYMTVVPDYWGQGTLVTVSSGAADYKDHDGDYKDHDIDYKDDDDKGAAHHHHHH", "classification": "f"}
{"binder": "T017000074 (bispecific antibody, TCR x CD20 bispecific Nanobody construct (cluster A); entry includes the FLAG3-HIS6 tag; also called T0170056G05-35GS-20CD019C07-FLAG3-HIS6) EVQLVESGGGLVQPGGSLRLSCVASGDVHKINFLGWYRQAPGKEREKVAHISIGDQTDYADSAKGRFTISRDESKNMVYLQMNSLKPEDTAVYFCRAFSRIYPYDYWGQGTLVTVSSGGGGSGGGGSGGGGSGGGGSGGGGSGGGGSGGGGSEVQLVESGGGLVQPGGSLRLSCTFSGGTFSSYTMGWFRQAPGKEREFVAEVRWGGVTTYSNSLKDRFSISEDSVKNAVYLQMNSLKPEDTAVYYCAAVRQMYMTVVPDYWGQGTLVTVSSGAADYKDHDGDYKDHDIDYKDDDDKGAAHHHHHH", "classification": "t"}
